# Target entity: human recombinant 6His-Nterm SHP2 full-length (Thr2-Arg593) (Homo sapiens)
# Construct: 6His-Nterm SHP2 full-length (Thr2-Arg593, R&D system); 6His (N)
# Sequence (Q06124 2-593): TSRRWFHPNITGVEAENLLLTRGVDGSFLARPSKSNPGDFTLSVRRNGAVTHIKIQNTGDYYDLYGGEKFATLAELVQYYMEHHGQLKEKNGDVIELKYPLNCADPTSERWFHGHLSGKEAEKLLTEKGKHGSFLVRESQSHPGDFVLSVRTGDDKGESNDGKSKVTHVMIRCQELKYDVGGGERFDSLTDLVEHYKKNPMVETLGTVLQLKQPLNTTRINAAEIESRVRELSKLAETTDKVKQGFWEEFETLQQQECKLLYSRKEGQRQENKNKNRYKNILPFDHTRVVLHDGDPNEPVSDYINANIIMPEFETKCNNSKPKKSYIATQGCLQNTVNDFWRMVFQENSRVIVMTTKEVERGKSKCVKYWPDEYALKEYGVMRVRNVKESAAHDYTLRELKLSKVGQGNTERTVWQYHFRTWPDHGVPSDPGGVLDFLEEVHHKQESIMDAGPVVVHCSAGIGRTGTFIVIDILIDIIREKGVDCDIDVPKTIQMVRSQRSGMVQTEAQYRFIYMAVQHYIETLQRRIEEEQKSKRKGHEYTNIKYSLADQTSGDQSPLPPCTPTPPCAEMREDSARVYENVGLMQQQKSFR
# Test name: SHP2 Phosphatase Assay (DiFMUP fluorescence)
# Condition context: SHP2 0.2 nM pre-incubated with 100 nM bi-phosphorylated activating peptide; compound 1000-0.05 nM, 30 min pre-incubation; DiFMUP 20 µM, 45 min, room temperature; 10-concentration dose-response
Structures can show the parent of a compound that is named as a salt.
Property label: log10 of IC50 (log10 of the value in nM)
Please keep in mind that the values are log10 of IC50 expressed in nM.

# map each compound to its log10 of IC50
1. Cc1nc(N2CCC3(CC2)Oc2ccccc2[C@H]3N)c2ccnn2c1-c1cccc(F)c1Cl
2. Cc1nc(N2CCC3(CC2)Cc2c(F)cc(F)cc2[C@H]3N)c2ccnn2c1-c1cnn(C)c1C [Compound 102, hydrochloride]
3. COc1ccc2c(n1)[C@H](N)C1(CCN(c3nc(C)c(-c4cccc(F)c4F)n4nccc34)CC1)C2
4. Cc1nc(N2CCC3(CC2)Cc2c(F)cccc2[C@H]3N)c2ccnn2c1-c1ccccc1F [Compound 93, hydrochloride]
5. Cc1nc(N2CCC3(CC2)Cc2cc(F)ccc2[C@H]3N)c2ccnn2c1-c1cnn(C)c1C [Compound 101, hydrochloride]

Output:
1: 2.06; 2: 1.23; 3: 2.77; 4: 1.66; 5: 1.18

# map each compound to its log10 of IC50
1. Cc1nccc(-c2cnc(N3CCC4(CC3)Cc3ncccc3[C@H]4N)c3ccnn23)c1Cl [Compound 86, hydrochloride]
2. Cc1nc2c(s1)CC1(CCN(c3nc(C)c(-c4ccnc(C)c4Cl)n4nccc34)CC1)[C@@H]2N [Compound 105, hydrochloride]

Output:
1: 1.78; 2: 0.78
